tested on: Bacillus subtilis; test: Antibacterial activity against Bacillus subtilis at 300 ug/ml after 24 hrs by agar well diffusion method; format: functional; settings: read-out: DIZ
As shown below, each of these compounds has a reported zone of inhibition at 300 µg/mL value.
Express the result in mm but write the number alone.

1) CCn1cc(C=C2C(=O)OC(C)(C)OC2=O)c2ccccc21	14
2) Cn1cc(C=C2C(=O)OC(C)(C)OC2=O)c2cc([N+](=O)[O-])ccc21	15
3) CN[C@@H]1[C@H](O[C@H]2[C@H](O[C@H]3[C@H](O)[C@@H](O)[C@H](N=C(N)N)[C@@H](O)[C@@H]3N=C(N)N)O[C@@H](C)[C@]2(O)C=O)O[C@@H](CO)[C@H](O)[C@H]1O [STREPTOMYCIN]	20
4) CCn1cc(C=C2C(=O)OC(C)(C)OC2=O)c2cc(Br)ccc21	15
5) CC1(C)OC(=O)C(=Cc2c[nH]c3ccccc23)C(=O)O1	17

Prompt line: Query: zone of inhibition at 300 µg/mL; subject: CC1(C)OC(=O)C(=Cc2c[nH]c3ccc(Br)cc23)C(=O)O1
Response line: 17

Prompt line: Field entry: CC1(C)OC(=O)C(=Cc2c[nH]c3ccc([N+](=O)[O-])cc23)C(=O)O1
Response line: 16

###

tested on: Klebsiella pneumoniae; assay: Antibacterial activity against Klebsiella pneumoniae at 100 ug/ml after 24 hrs by agar well diffusion method; format: functional; settings: read-out: DIZ
Reported Endpoint: zone of inhibition at 100 µg/mL (mm)
Express the result in mm but write the number alone.

// known answers, use as guide
1) CC1(C)OC(=O)C(=Cc2c[nH]c3ccc(Br)cc23)C(=O)O1	16
2) CC1(C)OC(=O)C(=Cc2c[nH]c3ccc([N+](=O)[O-])cc23)C(=O)O1	16

Prompt line: Query: zone of inhibition at 100 µg/mL; subject: CC1(C)OC(=O)C(=Cc2c[nH]c3ccccc23)C(=O)O1
Response line: 16

###

test system: Klebsiella pneumoniae; test: Antibacterial activity against Klebsiella pneumoniae at 50 ug/ml after 24 hrs by agar well diffusion method; format: functional; settings: read-out: DIZ
As shown below, each of these compounds has a reported zone of inhibition at 50 µg/mL value.
Entry format: amount then unit.

// known answers, use as guide
1. CCn1cc(C=C2C(=O)OC(C)(C)OC2=O)c2cc([N+](=O)[O-])ccc21	9 mm
2. COc1ccc2[nH]cc(C=C3C(=O)OC(C)(C)OC3=O)c2c1	11 mm
3. CCn1cc(C=C2C(=O)OC(C)(C)OC2=O)c2cc(OC)ccc21	8 mm
4. Cn1cc(C=C2C(=O)OC(C)(C)OC2=O)c2cc([N+](=O)[O-])ccc21	9 mm

API: the following record is the query input.
Prompt line: Query: zone of inhibition at 50 µg/mL; subject: CC1(C)OC(=O)C(=Cc2c[nH]c3ccc([N+](=O)[O-])cc23)C(=O)O1
Response line: 11 mm

Attribution: ChEMBL document CHEMBL2429768
